Source: paper PMC5540273

Entries and their measured %Inh follow.
Tested on: FGFR4;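 also: KINOMEscan kinase panel screen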
condition-notes: concentration: 1 μM, replicates: in singlicate; n = 1
Report only the number, with the unit % understood.

Worked cases, answers included:
>  <compound>
Cn1cnc2c(N)ncnc21 [SKF-97623]

>  <units-text>
%

>  <%Inh>
0

$$$$
>  <compound>
CC(C)c1ccc(O)cc1Nc1ccnc2ccc(C(F)(F)F)cc12 [GW482059]

>  <units-text>
%

>  <%Inh>
57

$$$$
>  <compound>
O=c1cc(N2CCOCC2)nc2n(Cc3cccc(Cl)c3Cl)c3ccccc3n12 [GSK2299009]

>  <units-text>
%

>  <%Inh>
21

$$$$
>  <compound>
CS(=O)(=O)Cc1ccc(Nc2nccc(-c3c(-c4cccc(NC(=O)C5CCCCC5)c4)nn4ncccc34)n2)cc1 [GSK350559]

>  <units-text>
%

>  <%Inh>
6

$$$$
>  <compound>
Cc1nccc(-c2c(-c3ccc(F)cc3)ncn2CCCN2CCOCC2)n1.Cl [SB-282975]

>  <units-text>
%

>  <%Inh>
0

$$$$

**Q:** Endpoint output: %Inh of COc1ccc(Nc2nccc(-c3ccc(NC(=O)c4cc5cc(F)ccc5[nH]4)cc3)n2)cc1 [GSK1229496] . Value?
**A:** 0

**Q:** Endpoint output: %Inh of COc1cccc(C2=C(Nc3cc(Cl)c(O)c(Cl)c3)C(=O)NC2=O)c1 [SB-390767] . Value?
**A:** 29

**Q:** Endpoint output: %Inh of CCn1c(-c2c(N)noc2C)nc2cnccc21 [SB-737856] . Value?
**A:** 11

**Q:** Endpoint output: %Inh of Fc1ccc(-c2nn3cccc(F)c3c2-c2ccncc2)cc1 [GW475620] . Value?
**A:** 0
